The reported measurements were obtained from patent US20220324835A1.

# system name: Cbl-b (Homo sapiens, UniProt Q13191)
# Sequence (Q13191 36-427): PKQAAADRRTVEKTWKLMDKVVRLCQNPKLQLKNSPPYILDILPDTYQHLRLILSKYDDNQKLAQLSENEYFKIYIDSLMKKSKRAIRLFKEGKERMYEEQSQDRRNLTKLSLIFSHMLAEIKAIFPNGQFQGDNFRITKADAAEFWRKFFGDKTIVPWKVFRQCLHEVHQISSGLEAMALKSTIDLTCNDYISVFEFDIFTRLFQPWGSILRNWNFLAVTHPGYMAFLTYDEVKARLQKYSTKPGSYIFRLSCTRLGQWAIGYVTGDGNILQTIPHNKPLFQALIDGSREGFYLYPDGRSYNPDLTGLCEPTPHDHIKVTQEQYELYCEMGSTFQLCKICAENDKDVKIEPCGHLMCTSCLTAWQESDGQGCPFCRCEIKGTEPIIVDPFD
# assay method text: Cbl-b activity assay (Cbl-b inhibition assay), TR-FRET of Cbl-b interaction with UbcH5B-Ub
# Type: biochemical
# assay setup: assay buffer with 100 mM NaCl, 60 nM Src kinase; read-out: Cbl-b activity IC50
measurement name: IC50

input: GET IC50 | system: Cbl-b (Homo sapiens, UniProt Q13191) | item: C[C@H](Cc1nncn1C)c1cccc(N2Cc3c(cc([C@H](C)N4CC[C@H](F)C4)cc3C(F)(F)F)C2=O)c1
output: < 100 nM

input: Lab note: record IC50 of CN1CCC(=O)C(Cc2cc3c(c(C(F)(F)F)c2)CN(c2cccc(C4(Cc5nncn5C)COC4)c2)C3=O)C1 (centres unmarked) tested on Cbl-b (Homo sapiens, UniProt Q13191).
output: < 100 nM

input: Print Cbl-b (Homo sapiens, UniProt Q13191) IC50 for C[C@H](c1cc2c(c(C(F)(F)F)c1)CN(c1cccc(C3([C@@H](F)c4nncn4C)COC3)c1)C2=O)N1CCC2(CC2)C1 [Example 576] .
output: < 100 nM

input: Please indicate recorded IC50 of C[C@@H](c1cc2c(c(C(F)(F)F)c1)CN(c1cccc(C3(Cc4nncn4C)COC3)c1)C2=O)N1CCC(F)(F)C1 measured with Cbl-b (Homo sapiens, UniProt Q13191).
output: < 100 nM

input: Specify the recorded IC50 for C[C@H](Sc1nncn1C)c1ccnc(NC(=O)c2cc(C3CC3)cc(C(F)(F)F)n2)c1 , system: Cbl-b (Homo sapiens, UniProt Q13191).
output: 301 to 1000 nM

input: Write down measured IC50 (Cbl-b (Homo sapiens, UniProt Q13191)) for this compound. C[C@H](Cc1nncn1C)c1cccc(NC(=O)c2cc(O[C@@H]3CC[C@H](O)C3)ccn2)c1
output: 301 to 1000 nM

input: Please look at C[C@H](Sc1nncn1C)c1cccc(NC(=O)c2cc(C(=O)N3CCC[C@H]3C)ccn2)c1 and tell me its recorded IC50 on Cbl-b (Homo sapiens, UniProt Q13191).
output: > 10000 nM

input: Fill in: IC50 on Cbl-b (Homo sapiens, UniProt Q13191), entry CN1CC2CCC(C1)N2c1cc2c(c(C(F)(F)F)c1)CN(c1cccc(C3(Cc4nncn4C)COC3)c1)C2=O
output: < 100 nM

---

For each entry below, report its fold induction at 0.3 µM value.
# Tested on: T-cell
# assay method text: IL-2 secretion from T-cells co-stimulated with anti-CD3 and anti-CD28 antibody (Biological Example 2)
# Type: cell-based, human
# assay setup: Homo sapiens, T-cell, 0.3 μM Cbl-b inhibitor; fold change over baseline (anti-CD3/anti-CD28 stimulated T-cells without inhibitor); read-out: IL-2 secretion Anti-CD3/Anti-CD28 stimulation

input: Provide one value: measured fold induction at 0.3 µM of C[C@H](Cc1nncn1C)c1cc(-c2cn[nH]c2)nc(N2Cc3c(cccc3C(F)(F)F)C2=O)c1 [Example 684]
output: < 1

input: Item Cc1cnn2c(C(=O)Nc3cccc(C4(Cc5nncn5C)COC4)c3)cc(C(F)(F)F)nc12 [Example 599] : provide fold induction at 0.3 µM
output: < 1

input: Consider the molecule Cn1cnnc1CC1(c2cccc(N3Cc4c(cc(C(N5CCCC5)C(F)(F)F)cc4C(F)(F)F)C3=O)c2)COC1 (stereo not shown) [Example 581] . State its measured fold induction at 0.3 µM.
output: 1.01 to 2.5

input: Supply fold induction at 0.3 µM value. Item: CC(c1cc2c(c(C3CC3)n1)CN(c1cccc(C3(Cc4nncn4C)COC3)c1)C2=O)N1CCCC1 (stereo not shown) [Example 584]
output: 1.01 to 2.5

---

# system name: Cbl-b (Homo sapiens)
# assay method text: Cbl-b inhibition assay (Cbl-b activity assay, FRET, Biological Example 1; 100 mM NaCl, 60 nM Src kinase)
# Type: biochemical
# assay setup: upper bound stated in text lists; read-out: IC50 values in the Cbl-b inhibition assay of Biological Example 1
measurement name: IC50

input: Answer with the recorded IC50 for the compound listed here: COC1CCCN(Cc2cc3c(c(C(F)(F)F)c2)CN(c2cccc(C4(Cc5nncn5C)COC4)c2)C3=O)C1 (stereo not drawn)
output: ≤ 100 nM

input: // Input: CCN1CCN(Cc2cc3c(c(C(F)(F)F)c2)CN(c2cccc(C4(Cc5nncn5C)COC4)c2)C3=O)CC1 . Output its IC50 only.
output: ≤ 100 nM

input: Read the entry C[C@H](Sc1nncn1C)c1cccc(NC(=O)c2cc(C(F)(F)F)cc(Cl)n2)c1 and write its reported IC50.
output: ≤ 10000 nM

input: Give the reported IC50 for this compound. Cn1cnnc1CC1(c2cccc(N3Cc4c(cc(CN5CCC[C@H](F)C5)cc4C(F)(F)F)C3=O)c2)COC1
output: ≤ 100 nM

input: Give recorded IC50. Cc1conc1C[C@@H](C)c1cccc(N2Cc3c(cc(C(=O)N4CC[C@H](O)C4)cc3C(F)(F)F)C2=O)c1
output: ≤ 100 nM

input: Consider the compound C[C@H](Cc1nncn1C)c1cccc(NC(=O)c2cc(C(=O)N3CC(S(C)(=O)=O)C3)ccn2)c1 and give its recorded IC50.
output: ≤ 10000 nM

input: # return recorded IC50 for entry Cc1cc(C(=O)Nc2cccc(C(C)(C)Cc3nncn3C)c2)nc(C2CC2)n1
output: ≤ 100 nM

input: // fetch IC50 given entry Cc1nc2cc([C@H](C)Sc3nncn3C)cc(NC(=O)c3cccc(C(F)(F)F)n3)c2o1 [Compound 130a]
output: ≤ 1000 nM

input: # return recorded IC50 for input C[C@H](Sc1nncn1C)c1cccc(NC(=O)c2cc(C(=O)N3C[C@H](O)[C@@H](O)C3)ccn2)c1
output: ≤ 10000 nM

---

# system name: Cbl-b (Homo sapiens)
# assay method text: Cbl-b inhibition assay (Cbl-b activity assay, FRET, Biological Example 1; 100 mM NaCl, 60 nM Src kinase)
# Type: biochemical
# assay setup: upper bound stated in text lists; read-out: IC50 values in the Cbl-b inhibition assay of Biological Example 1
# Source text: FIG. 1A and FIG. 1B show a series of diagrams depicting the activity assay utilized to assay inhibition of Cbl-b activity by a Cbl-b inhibitor. FIG. 1A: The activity assay mixture comprises an N-terminal biotinylated Avi-tagged Cbl-b, an E2 enzyme (i.e., UbcH5B) irreversibly conjugated to Bodipy-Fluorescein tagged ubiquitin (i.e., UbcH5B-Ub), a Src kinase, streptavidin-terbium, and assay buffer. […]
Assign IC50 to each entry below.

input: Jot down IC50 (Cbl-b (Homo sapiens)) of Cn1cnnc1CC1(c2cccc(N3Cc4c(cc(CN5CCc6ccccc6C5)cc4C(F)(F)F)C3=O)c2)COC1 .
output: ≤ 100 nM

input: Please look at C[C@H](Cc1nncn1C)c1cccc(NC(=O)c2cc(C(=O)N3CC[C@H](O)C3)ccc2F)c1 and tell me its recorded IC50 on Cbl-b (Homo sapiens).
output: ≤ 10000 nM

input: Report IC50 on Cbl-b (Homo sapiens) for this entry: Cn1cnnc1CC1(c2cccc(N3Cc4c(cc(CN5CC[C@H]6C[C@H]65)cc4C(F)(F)F)C3=O)c2)COC1 (single isomer, unassigned) [Compound 486a]
output: ≤ 100 nM

input: Tell me IC50 of C[C@H](Cc1nncn1C)c1cc(C2CC2)nc(N2Cc3c(cccc3C(F)(F)F)C2=O)c1 when tested on Cbl-b (Homo sapiens).
output: ≤ 100 nM

input: Check Cbl-b (Homo sapiens) data and give IC50 for Cc1nnnn1CC(C)c1cccc(NC(=O)c2cccc(C(F)(F)F)n2)c1 (stereo not drawn) .
output: ≤ 10000 nM

input: Give IC50 for COc1c(C(=O)Nc2cccc([C@H](C)Sc3nncn3C)c2)cccc1C(F)(F)F tested on Cbl-b (Homo sapiens).
output: ≤ 10000 nM

input: Look up and report IC50, with Cbl-b (Homo sapiens) as system, for C[C@H](c1cc2c(c(C(F)(F)F)c1)CN(c1cccc(C3(Cc4nncn4C)COC3)c1)C2=O)N1CCC(C)(F)CC1 [Example 553b]
output: ≤ 100 nM

input: Report value only: IC50, Cbl-b (Homo sapiens), Cn1cnnc1CC1(c2cccc(N3Cc4c(cc(CN5CCOC(CF)C5)cc4C(F)(F)F)C3=O)c2)COC1 (stereo not drawn)
output: ≤ 100 nM

input: Enter IC50 (test system Cbl-b (Homo sapiens)) for CC(Cc1n[nH]cc1CO)c1cccc(N2Cc3c(cccc3C(F)(F)F)C2=O)c1 (stereo not drawn)
output: ≤ 10000 nM

---

# system name: Cbl-b (Homo sapiens)
# assay method text: Cbl-b activity assay (Cbl-b inhibition assay), TR-FRET of Cbl-b interaction with UbcH5B-Ub
# Assay type: biochemical
# assay setup: assay buffer with 100 mM NaCl, 60 nM Src kinase; read-out: Cbl-b activity IC50
Kindly state IC50 for each of the entries shown.

input: Send back Cbl-b (Homo sapiens) IC50 of Cn1cnnc1CC1(c2cccc(N3Cc4c(cc(CN5CC(C)(C#N)C5)cc4C(F)(F)F)C3=O)c2)COC1 [Compound 425] only.
output: < 100 nM

input: Enter measured IC50, system Cbl-b (Homo sapiens), for the molecule shown: Cc1cc(C(=O)Nc2cccc([C@H](C)Sc3nncn3C)c2)nc2ccccc12 [Compound 30]
output: 301 to 1000 nM

input: Please respond with reported IC50 (system Cbl-b (Homo sapiens)) for C[C@@H](Cc1nncn1C)c1cccc(NC(=O)c2cccc(C(F)(F)F)n2)c1 [Compound 183b] .
output: 100 to 300 nM

input: Give IC50 for Cn1cnnc1CC1(c2cccc(N3Cc4c(cc(CN5CCc6cc(C#N)ccc6C5)cc4C(F)(F)F)C3=O)c2)COC1 [Example 706] tested on Cbl-b (Homo sapiens).
output: < 100 nM

input: Report IC50 from Cbl-b (Homo sapiens) testing of Cn1cnnc1C[C@@H](c1cccc(N2Cc3c(cccc3C(F)(F)F)C2=O)c1)C(F)(F)F [Compound 471b]
output: 3000 to 10000 nM

input: GET IC50 | system: Cbl-b (Homo sapiens) | item: Cn1cnnc1CC1(c2cccc(N3Cc4c(cc(CN5CCCC6CC65)cc4C(F)(F)F)C3=O)c2)COC1 (centres unmarked) [Compound 490]
output: < 100 nM

input: Find the measured IC50 of C[C@H](Cc1nncn1C)c1cccc(NC(=O)c2cc3cc(N4CCNCC4)ccc3cn2)c1 [Compound 472] with Cbl-b (Homo sapiens) as test system.
output: < 100 nM

input: State IC50 (Cbl-b (Homo sapiens)) of Cn1cnnc1CC1(c2cccc(N3Cc4c(cc(CN5CCc6ncccc6C5)cc4C(F)(F)F)C3=O)c2)COC1 [Example 709] .
output: < 100 nM
